- system-under-test: T1, human CD25 (human, UniProt P01589 22-213, limits assumed)
- T1 construct: Recombinant soluble human CD25, coated on plates (ELISA) or injected over captured antibody (BIAcore); also called hCD25; IL2-R alpha
- T1 sequence (looked up): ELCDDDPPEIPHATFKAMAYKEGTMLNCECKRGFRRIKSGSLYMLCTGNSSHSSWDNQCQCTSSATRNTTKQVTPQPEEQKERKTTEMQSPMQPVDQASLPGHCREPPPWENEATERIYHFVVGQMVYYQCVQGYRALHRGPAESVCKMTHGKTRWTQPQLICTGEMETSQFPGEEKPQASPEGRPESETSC
- test-summary: competition ELISA vs biotinylated daclizumab, fold over wild type
Decide by ELISA fold improvement: equal to or exceeding 6 fold means 1, less means 0.

See these solved cases before continuing.
binder="Variant C40 (antibody, name in Kabat numbering, V domains shown, Isotype as printed: G2M3.QL) VH: QVQLVQSGAEVKKPGSSVKVSCKASGYTFTSYRMHWVRQAPGQGLEWMGYISPRKGYTEYNQKFKDKATITADESTNTAYMELSSLRSEDTAVYYCARGGGVFDYWGQGTLVTVSS VL: DIQMTQSPSTLSASVGDRVTITCSASSSISYMHWYQQKPGKAPKLLIYTTSELASGVPARFSGSGSGTEFTLTISSLQPDDFATYYCHQRSTYPLTFGQGTKVEVK" label_class=1
binder="Variant C43 (antibody, name in Kabat numbering, V domains shown, Isotype as printed: G2M3.QL) VH: QVQLVQSGAEVKKPGSSVKVSCKASGYTFTSYRMHWVRQAPGQGLEWMGYISPRSGYTEYNQKFKDKATITADESTNTAYMELSSLRSEDTAVYYCARGGGVFDYWGQGTLVTVSS VL: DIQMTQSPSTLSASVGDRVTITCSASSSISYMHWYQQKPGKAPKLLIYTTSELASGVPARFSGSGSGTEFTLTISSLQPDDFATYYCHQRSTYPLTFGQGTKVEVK" label_class=0
binder="Variant C28 (antibody, V domains shown, Isotype as printed: G2M3.QL) VH: QVQLVQSGAEVKKPGSSVKVSCKASGYTFTSYRMHWVRQAPGQGLEWMGYINPSSGYTEYNQKFKDKATITADESTNTAYMELSSLRSEDTAVYYCARGGGVFDYWGQGTLVTVSS VL: DIQMTQSPSTLSASVGDRVTITCSASSKISYMHWYQQKPGKAPKLLIYTTSDLASGVPARFSGSGSGTEFTLTISSLQPDDFATYYCHQRSTYPLTFGQGTKVEVK" label_class=0

[in] Identify whether the reported ELISA fold improvement of the following binder is 6 fold or greater: Variant C38 (antibody, name in Kabat numbering, V domains shown, Isotype as printed: G2M3.QL) VH: QVQLVQSGAEVKKPGSSVKVSCKASGYTFTSYRMHWVRQAPGQGLEWMGYISPRKGYTEYNQKFKDKATITADESTNTAYMELSSLRSEDTAVYYCARGGGVFDYWGQGTLVTVSS VL: DIQMTQSPSTLSASVGDRVTITCSASSSISYMHWYQQKPGKAPKLLIYTTSNLASGVPARFSGSGSGTEFTLTISSLQPDDFATYYCHQRSTYPLTFGQGTKVEVK
[out] 1
